Experiment: Trolox Equivalents Antioxidant Capacity (TEAC) assay
Assay type: biochemical
Settings: compounds 10-1000 μM, ABTS 0.5 mM, 734 nm, 6 min; ratio of slopes, no unit; n = 3
Binarize TEAC (Trolox equivalent antioxidant capacity) ± SEM at 1; below is condition met, at or above is condition not met.

>>> assigned_category("C[C@H]1O[C@@H](Oc2c(-c3ccc(O)cc3)oc3cc(O)cc(O)c3c2=O)[C@@H](O)[C@@H](O)[C@@H]1O [compound 3, kaempferol 3-O-β-D-rhamnoside]")
"condition met"
>>> assigned_category("O=C1O[C@H]([C@@H](O)CO)C(O)=C1O [Ascorbic acid, reference compound]")
"condition not met"
>>> assigned_category("O=Cc1ccc(CO)o1 [compound 8, 5-hydroxymethylfurfural]")
"condition not met"

Problem: TEAC (Trolox equivalent antioxidant capacity) ± SEM under 1? Item: O=c1c(O)c(-c2ccc(O)c(O)c2)oc2cc(O)cc(O)c12 [Quercetin, reference compound]
Result: condition not met
